# System: IGROV-1
# procedure_text: NCI tumour cell line growth inhibition, 48 h
Active and inactive are the calls of the source. Cut-off read from the data, not from the text of the source: active = GI50 up to about 1.1 µM and inactive = higher.
Outcomes: class 1 for active, class 0 for inactive

molecule=CCOC(=O)C1=C(OS(=O)(=O)C(F)(F)F)CCCC1 category="class 0"
molecule=CC(=O)O/N=C/c1ncccc1CO category="class 0"
molecule=COC(=O)[C@H](CCSC)NC(=O)c1ccc(CNC(=O)/C(C)=C/c2ccccc2)cc1 category="class 0"
molecule=Clc1ccc(CSCc2ccc(Cl)cc2Cl)c(Cl)c1 category="class 0"
molecule="Cc1ccc(S(=O)(=O)OCC23CCC(C2)C2CC23)cc1 (configuration not stated)" category="class 0"
molecule=O=C(CCl)N1CCN(c2ccccn2)CC1 category="class 0"
molecule=O=C(Nn1cc(F)c(=O)[nH]c1=O)C12CC3CC(CC(C3)C1)C2 category="class 0"
molecule=C(=C\c1ccccc1)/C=N/c1nc2cc3sc(/N=C/C=C/c4ccccc4)nc3cc2s1 category="class 0"
molecule=COc1cc2nc(NCCCCCNC(=O)c3ccco3)nc(N)c2cc1OC category="class 0"
molecule="O=C(NC(Cc1ccc(I)cc1)C(=O)O)c1ccc(Cl)cc1 (configuration not stated)" category="class 0"
molecule=COc1cccc([C@H]2CC(=O)c3cc4c(cc3N2)OCO4)c1 category="class 1"
molecule="O/N=C1/CCCCC1NO (configuration not stated)" category="class 0"
molecule="COC(=O)C1=C(C[S+]([O-])c2ccc([N+](=O)[O-])cc2[N+](=O)[O-])ON(C)C1c1ccccc1 (configuration not stated)" category="class 0"
molecule="COc1cc(C(C)O)c[n+](CCC2CNc3ccccc32)c1 (configuration not stated)" category="class 0"
molecule=COc1cc(Nc2cnc3ccc(N)cc3n2)cc(OC)c1OC category="class 0"
molecule=O=C(C[n+]1ccccc1)N/N=C(/CCC(=O)N(Cc1ccccc1)Cc1ccccc1)CC(=O)c1ccccc1 category="class 0"
molecule="CCC(C)CNC1=C(NC(C)=O)C(=O)c2ccccc2C1=O (configuration not stated)" category="class 0"
molecule=Cc1cc(C)c2c(n1)S(=O)(=O)N(CCCN1CCN(c3cccc(Cl)c3)CC1)C(C(=O)c1ccc(Br)cc1)=C2O category="class 0"
molecule=COC(=O)c1c/c(=N\NC(=O)CC(=O)Nc2ccccc2Cl)c2ccccc2o1 category="class 0"
molecule=O=C(CSc1nnc(-c2ccc(/N=C\c3ccc(Cl)cc3)cc2)o1)Nc1ccc(Cl)cc1Cl category="class 0"
molecule="O=S(=O)(/N=C(\\NO)Nc1ccc(Cl)cc1)C1CC=C(c2ccon2)S1 (configuration not stated)" category="class 0"
molecule="COC(=O)C1(Cc2ccc3c(c2)CCC3)Cc2ccc3c(c2C1=O)CCC3 (configuration not stated)" category="class 0"
